- targetOrTestSystem: UniProt:Q96RI1
- Sequence (Q96RI1 whole entry): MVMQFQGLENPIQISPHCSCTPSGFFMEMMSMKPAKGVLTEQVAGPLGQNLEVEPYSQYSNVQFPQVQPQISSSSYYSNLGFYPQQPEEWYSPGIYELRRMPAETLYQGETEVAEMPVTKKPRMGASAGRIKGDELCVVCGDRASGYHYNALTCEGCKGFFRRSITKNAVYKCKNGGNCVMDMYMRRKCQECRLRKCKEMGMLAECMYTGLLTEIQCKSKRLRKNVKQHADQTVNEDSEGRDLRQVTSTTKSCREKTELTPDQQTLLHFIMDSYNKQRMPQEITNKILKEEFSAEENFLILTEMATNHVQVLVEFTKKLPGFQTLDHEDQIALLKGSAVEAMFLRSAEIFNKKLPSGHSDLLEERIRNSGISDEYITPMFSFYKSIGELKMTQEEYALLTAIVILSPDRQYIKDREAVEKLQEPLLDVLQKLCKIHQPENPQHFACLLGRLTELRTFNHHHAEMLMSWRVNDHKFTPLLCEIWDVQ
- Sequence (P19793 whole entry partner): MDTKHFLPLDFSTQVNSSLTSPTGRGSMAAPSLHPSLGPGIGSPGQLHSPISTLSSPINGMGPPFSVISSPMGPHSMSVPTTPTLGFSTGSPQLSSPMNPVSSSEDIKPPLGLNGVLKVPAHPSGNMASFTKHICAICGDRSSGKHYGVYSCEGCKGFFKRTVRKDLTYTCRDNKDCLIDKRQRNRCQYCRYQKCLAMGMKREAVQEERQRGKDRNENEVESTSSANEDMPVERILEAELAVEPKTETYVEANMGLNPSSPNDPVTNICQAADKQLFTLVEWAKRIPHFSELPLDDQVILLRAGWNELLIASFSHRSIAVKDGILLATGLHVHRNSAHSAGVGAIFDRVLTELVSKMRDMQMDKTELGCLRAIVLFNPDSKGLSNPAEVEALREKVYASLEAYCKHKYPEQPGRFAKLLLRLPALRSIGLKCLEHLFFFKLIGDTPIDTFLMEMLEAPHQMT
- runDescription: In Vitro FXR Assay (TK)
- conditionLabel: transfected CV-1 cells (hFXR, hRXR, TK-ECRE-luc), 18 hrs incubation, luminescence
testReadout: EC50

Bench note: what EC50 did COc1ccc(C23CCC(CN(c4cc(-c5cnn(C(C)(C)C)c5)ccn4)C(=O)[C@H]4CC[C@H](OC(=O)N5CC(O)C5)CC4)(CC2)CC3)cc1C [Compound 1] show? ≤ 0.01 µM
